Read-out: flavin-containing dimethylaniline monooxygenases 3 (FMO3), FMO3 (gene 2328)
EXPERIMENT NOTES: LTEA_HepaRG_FMO3: Life Technologies and Expression Analysis (LTEA) Assay for flavin-containing dimethylaniline monooxygenases 3 (FMO3) using HepaRG (AID 2283453)
SETTINGS: mRNA level, 48 h; actives raise or lower the signal
Calls of active or inactive are those of the source. Rule for the calls: active = hit-call score of the fitted dose curve at least 0.9, where 1 is the maximum; inactive = score below 0.9.
Labels: label 1 = active, label 0 = inactive

{"columns": ["CHEMICAL SMILES", "LABEL CLASS"],
 "data": [
  ["Cc1ncc([C@@H](CCCCCCc2ccc3c(n2)NCCC3)CC(=O)O)cn1", "label 0"],
  ["COc1cc(C(C)C)c2c(c1)S(=O)(=O)N(COc1cc(=O)n3cccc(OCCN4CCCCC4)c3n1)C2=O", "label 1"],
  ["CCc1cccc(CC)c1N", "label 0"],
  ["O=S1(=O)CCCO1", "label 0"],
  ["CC[C@H](C)C(=O)O[C@H]1C[C@H](O)C=C2C=C[C@H](C)[C@H](CC[C@@H](O)C[C@@H](O)CC(=O)O)[C@H]21", "label 0"],
  ["CCCC(CCC)C(=O)O", "label 0"],
  ["CCN(CC)C(=S)SSC(=S)N(CC)CC", "label 0"],
  ["CC(C)C(=O)Nc1ccc([N+](=O)[O-])c(C(F)(F)F)c1", "label 1"],
  ["OC[C@H]1O[C@@](CO)(O[C@H]2O[C@H](CO)[C@@H](O)[C@H](O)[C@H]2O)[C@@H](O)[C@@H]1O", "label 0"],
  ["CC1(C)C(=O)N(Cl)C(=O)N1Cl", "label 0"],
  ["NC(=O)N(O)[C@@H]1COc2cc(OCc3ccccc3)ccc21", "label 0"]
]}

----------
EXPERIMENT NOTES: ACEA_AR_antagonist_AUC_viability: ACEA Biosciences xCELLigence Real-Time Cell Analysis on Androgen Receptor Antagonism for Viability (AID 2283776);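 note: 22Rv1 human prostate cancer cells growing on impedance electrode plates; area under impedance growth curve at 80 h after dosing as viability; hits lower the growth signal relative to DMSO meaning cytotoxicity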
Inconclusive results are not listed. Active and inactive are the calls of the source. The calls were made as follows: active = hit-call score of the fitted dose curve at least 0.9, where 1 is the maximum; inconclusive = response in the unintended direction; inactive = score below 0.9.

{"columns": ["COMPOUND", "AC50"],
 "data": [
  ["CCCCCCOC(=O)CC(CC(=O)OCCCCCC)(OC(=O)CCC)C(=O)OCCCCCC", "inactive"],
  ["O=S1(=O)CCCO1", "inactive"],
  ["NC(N)=O", "inactive"],
  ["O=C(O)[C@H](O)[C@@H](O)C(=O)O", "inactive"],
  ["CCn1nc(C)c2c1C(=O)NCC(c1ccc(O)cc1)=N2", "15.1 µM (active)"],
  ["COc1cc2c(c(OC)c1OC)-c1ccc(OC)c(=O)cc1[C@@H](NC(C)=O)CC2", "0.00231 µM (active)"],
  ["Cc1cccc(O)c1C", "inactive"],
  ["COCc1nnc(-c2ccc[n+]([O-])c2)n1-c1c(Cl)c(Cl)cc2[nH]c(=O)c(=O)[nH]c12", "inactive"],
  ["CC(C)CC(C)O (configuration not stated)", "inactive"],
  ["CCOc1ccc2[nH]cc(C(=O)NCc3ccccc3)c(=O)c2n1", "35.9 µM (active)"],
  ["CCOC(N)=O", "inactive"],
  ["C[C@@H](Oc1ccc(CNC(=O)c2cccnc2Oc2ccc3c(c2)OCO3)c(F)c1)C(=O)O", "inactive"],
  ["OC(Cn1cncn1)(Cn1cncn1)c1ccc(F)cc1F", "inactive"],
  ["c1ccc2ncccc2c1", "inactive"],
  ["OCc1ccccc1", "inactive"],
  ["O=C(O)c1ccc2c(c1)nc(C(=O)NC1CCN(C3CC3)CC1)n2Cc1cc(-c2ccc(Cl)s2)on1", "15.8 µM (active)"],
  ["CC(=O)c1ccccc1", "inactive"]
]}
